molecular target: MAP kinase-interacting serine/threonine-protein kinase 1 (Homo sapiens); assay: Inhibition of Mnk1 (unknown origin); conditions: read-out: pIC50 (converted)
attribute measured: IC50 (nM)
Give just the number in nM; leave the unit off.

Example results:
smiles input	attribute measured	unit	experimental result
CN(C)CCCNC(=O)c1cc2ncnc(N3CCc4cc(F)ccc43)c2n1C	IC50	nM	12.6
O=C(NCC1CCNCC1)c1nc2c(N3CCc4cc(Cl)ccc43)ncnc2s1	IC50	nM	3.16
CC(C)Oc1cc(F)ccc1Nc1ncnc2sc(C(=O)NCC3CCNCC3)nc12	IC50	nM	50.1

Item "CN(C)CCCNC(=O)c1nc2c(N3CCc4ccccc43)ncnc2s1" was tested on MAP kinase-interacting serine/threonine-protein kinase 1 (Homo sapiens); the reported IC50 is 10

Item "CNC(=O)c1nc2c(Nc3ccc(F)cc3OC(C)C)ncnc2s1" was tested on MAP kinase-interacting serine/threonine-protein kinase 1 (Homo sapiens); the reported IC50 is 50.1

Item "CC1(C)CN(c2ncnc3sc(C(=O)NCC4CCNCC4)nc23)c2ccccc21" was tested on MAP kinase-interacting serine/threonine-protein kinase 1 (Homo sapiens); the reported IC50 is 3.16

----------
Molecular target: Tyrosine-protein kinase JAK3 (Homo sapiens, UniProt P52333)
Sequence (P52333 whole entry): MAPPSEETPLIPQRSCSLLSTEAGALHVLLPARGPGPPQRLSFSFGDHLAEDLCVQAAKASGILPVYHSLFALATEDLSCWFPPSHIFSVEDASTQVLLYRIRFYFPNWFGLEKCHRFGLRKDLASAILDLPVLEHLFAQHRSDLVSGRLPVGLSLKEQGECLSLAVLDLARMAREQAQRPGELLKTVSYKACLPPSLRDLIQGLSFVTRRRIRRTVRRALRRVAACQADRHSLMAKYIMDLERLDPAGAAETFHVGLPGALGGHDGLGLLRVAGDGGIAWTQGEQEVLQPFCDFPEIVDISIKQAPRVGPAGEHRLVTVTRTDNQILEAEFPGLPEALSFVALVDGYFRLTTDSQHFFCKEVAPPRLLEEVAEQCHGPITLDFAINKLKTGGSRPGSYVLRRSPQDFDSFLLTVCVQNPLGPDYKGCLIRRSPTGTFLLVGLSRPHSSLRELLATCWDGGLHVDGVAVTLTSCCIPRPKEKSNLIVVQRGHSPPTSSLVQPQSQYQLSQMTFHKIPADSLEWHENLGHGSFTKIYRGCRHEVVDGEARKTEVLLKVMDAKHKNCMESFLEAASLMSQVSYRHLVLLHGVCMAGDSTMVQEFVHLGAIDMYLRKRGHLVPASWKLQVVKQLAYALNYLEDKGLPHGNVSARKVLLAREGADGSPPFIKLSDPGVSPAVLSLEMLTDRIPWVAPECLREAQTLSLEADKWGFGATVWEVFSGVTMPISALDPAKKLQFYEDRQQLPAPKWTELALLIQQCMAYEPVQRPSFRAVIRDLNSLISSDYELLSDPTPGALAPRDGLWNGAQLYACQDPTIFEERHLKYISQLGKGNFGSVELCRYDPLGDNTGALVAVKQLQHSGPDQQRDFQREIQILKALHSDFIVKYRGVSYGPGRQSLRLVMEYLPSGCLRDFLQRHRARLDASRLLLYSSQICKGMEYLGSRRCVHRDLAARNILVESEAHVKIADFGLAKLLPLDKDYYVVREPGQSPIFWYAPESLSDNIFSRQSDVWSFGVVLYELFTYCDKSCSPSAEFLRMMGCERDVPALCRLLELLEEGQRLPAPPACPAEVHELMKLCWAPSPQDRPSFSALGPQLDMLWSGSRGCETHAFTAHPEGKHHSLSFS
attribute measured: pIC50
# pIC50 = -log10(concentration in molar units)

pIC50 for "C=CC(=O)Nc1cc(-n2c(=O)ccc3cnc4ccc(-c5cn[nH]c5)cc4c32)ccc1C" is 7.25

----------
assay: Oral bioavailability in male RH:Foxn1 nude rat; format: ADME, organism-based; conditions: in vivo
attribute measured: bioavailability
Param answer (str): number followed by unit.

bioavailability for "C[C@H](CN)Oc1ccc2ncc(-c3cc4ccccc4o3)n2n1" is 78%

----------
assay: Clearance in male RH:Foxn1 nude rat; assay type: ADME; settings: in vivo
attribute measured: clearance (mL/min/kg)
Give just the number in mL/min/kg; leave the unit off.

clearance for "C[C@H](CN)Oc1ccc2ncc(-c3cc4ccccc4o3)n2n1" is 6.83

----------
target: MAP kinase-interacting serine/threonine-protein kinase 1 (Homo sapiens, UniProt Q9BUB5); experiment: Inhibition of Mnk1 (unknown origin) using eIF4E-derived (D 202 TATKSGSTTKNR 214) peptide as substrate incubated for 90 mins by IMAP TR-FRET assay
Sequence (Q9BUB5 whole entry): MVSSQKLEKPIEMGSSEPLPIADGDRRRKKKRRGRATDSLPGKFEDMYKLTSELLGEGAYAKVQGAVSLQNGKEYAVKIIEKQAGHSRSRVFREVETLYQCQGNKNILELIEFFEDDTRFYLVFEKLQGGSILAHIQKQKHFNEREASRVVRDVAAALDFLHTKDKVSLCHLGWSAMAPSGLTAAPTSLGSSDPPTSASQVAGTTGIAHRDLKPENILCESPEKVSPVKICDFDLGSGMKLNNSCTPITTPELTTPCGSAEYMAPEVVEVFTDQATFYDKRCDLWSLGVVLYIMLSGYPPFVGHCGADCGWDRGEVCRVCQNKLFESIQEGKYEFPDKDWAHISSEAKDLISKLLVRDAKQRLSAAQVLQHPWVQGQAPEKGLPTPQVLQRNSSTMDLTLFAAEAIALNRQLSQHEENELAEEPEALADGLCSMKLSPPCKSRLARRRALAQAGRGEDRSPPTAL
attribute measured: pIC50
# pIC50 = -log10(concentration in molar units)

pIC50 for "Cc1c(C(=O)O)sc2ncnc(Nc3ccc(F)cc3OC(CF)CF)c12" is 3.83

----------
test: Intermediate elimination half life in female NMRI-nu/nu mouse; format: ADME; settings: in vivo, read-out: beta t1/2 (converted)
attribute measured: half-life
Param answer (str): number followed by unit.

half-life for "C[C@H](CN)Oc1ccc2ncc(-c3cc4ccccc4o3)n2n1" is 1.2 h

Reference for the values: ChEMBL document CHEMBL5136973
